Reference for the values: patent US10927123B2

Biological target: Beta-3 Adrenergic Receptor (Homo sapiens (Human), UniProt P13945)
Sequence (P13945 whole entry, species assumed): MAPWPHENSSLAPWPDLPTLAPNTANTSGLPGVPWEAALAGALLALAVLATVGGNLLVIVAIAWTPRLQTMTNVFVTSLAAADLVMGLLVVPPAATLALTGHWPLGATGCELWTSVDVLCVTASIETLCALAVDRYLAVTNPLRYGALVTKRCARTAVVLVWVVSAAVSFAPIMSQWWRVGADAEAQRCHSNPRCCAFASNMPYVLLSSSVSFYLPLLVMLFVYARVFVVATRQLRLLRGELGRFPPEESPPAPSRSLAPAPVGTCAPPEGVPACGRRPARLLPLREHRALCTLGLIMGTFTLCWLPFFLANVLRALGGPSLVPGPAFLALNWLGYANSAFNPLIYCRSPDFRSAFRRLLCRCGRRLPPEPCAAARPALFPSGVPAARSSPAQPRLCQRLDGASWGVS
Assay: HTRF cAMP antagonist assay (IC50 determination)
Settings: CHO-K1 cells stably expressing recombinant receptor; antagonism of isoproterenol at EC90; cAMP readout
pIC50: −log10 of the molar value.
parameter_measured: pIC50

Here's what some known entries look like.
Look up and state reported pIC50 for O=S(=O)(c1cnc2ccccc2c1)N1CCC2(CC1)C[C@@H](NC[C@H](O)COc1cccc(S(=O)(=O)C(F)(F)CO)c1)CO2
7.92

Look up and state reported pIC50 for CS(=O)(=O)c1cccc(OC[C@@H](O)CNC2COC3(CCN(S(=O)(=O)c4ccc5c(Cl)cccc5c4)CC3)C2)c1 (stereo partly drawn)
7.91

a: CS(=O)(=O)c1cccc(OC[C@@H](O)CNC2COC3(CCN(S(=O)(=O)c4cccc(-c5cn[nH]c5)c4)CC3)C2)c1 (stereo partly drawn)
b: CCOc1ccc(-c2ccc(CN)cc2)cc1S(=O)(=O)N1CCC2(CC1)C[C@H](NC[C@H](O)COc1cccc(S(=O)(=O)COC)c1)CO2
c: CC(C)CS(=O)(=O)c1cccc(OC[C@@H](O)CN[C@H]2COC3(CCN(S(=O)(=O)c4cnc5ccccc5c4)CC3)C2)c1
d: O=C1Cc2cc(S(=O)(=O)N3CCC4(CC3)C[C@@H](NC[C@H](O)COc3cccc(S(=O)(=O)C5CC5)c3)CO4)cnc2N1
Ordering criterion: pIC50; begin with the maximum. State the ranking by listing the labels in the requested order.
a, b, c, d
(a: 8.03, b: 7.82, c: 7.11, d: 6.85)
